Tested on: A549 NSCLC
Assay: NCI tumour cell line growth inhibition, 48 h
Give TGI for every item shown.

## Task Please report the recorded TGI for COc1ncnc2c(Cl)c(C(O)c3ccccc3)c(Cl)cc12 (stereo not drawn) .
## Result > 100 µM

# return TGI for each item in the list
1. C=C1[C@@H](OC(C)=O)/C=C/C2C3C(=O)[C@@](C)(OC(C)=O)[C@H]([C@H](OC(C)=O)[C@]4(O)[C@@H](C)C(=O)O[C@H]4[C@H]1Cl)[C@@]23C (stereo partly drawn)
2. CN(C)C12C=CC=CC3=C(c4ccccc4)C(c4ccccc4)=C(c4ccccc4)C31c1ccccc1C2 (stereo not drawn)

## Result
> 100 µM
> 100 µM
